Measured values drawn from the supplement of paper PMC10567573 for this set.

B1: C8orf76 (parent)
chain: KLAEAYLNLGPALSAALASSQKQH

variants of: B1; experiment: protein stability index of a GFP-peptide fusion (GPS, HEK-293T) (PSI 1-6); higher = more stable; details: c terminus: a fixed tail appended;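 also: lentivirally expressed fusions sorted by FACS into six bins by GFP to DsRed ratio, PSI derived from sequencing read proportions per bin multiplied by bin number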
protein stability index of 3 or higher: Satisfied. Under 3: Not satisfied.

# variant_designation, assigned_class
measured = [
    ("A5M", "Satisfied"),
    ("N8Y", "Not satisfied"),
    ("A3M", "Not satisfied"),
    ("L9D", "Satisfied"),
    ("K1Y", "Not satisfied"),
    ("Q23Y", "Not satisfied"),
    ("A15H", "Not satisfied"),
    ("Y6W", "Not satisfied"),
    ("S19R", "Not satisfied"),
    ("A12I", "Not satisfied"),
    ("A5Y", "Satisfied"),
    ("Q23R", "Not satisfied"),
    ("Q21H", "Not satisfied"),
    ("Q23N", "Not satisfied"),
    ("A12F", "Not satisfied"),
    ("L17F", "Not satisfied"),
    ("A5L", "Satisfied"),
    ("K1Q", "Not satisfied"),
    ("H24T", "Not satisfied"),
    ("S20Y", "Not satisfied"),
]
